- assay_system: human Nav1.8/b3 (Homo sapiens, UniProt Q9Y5Y9)
- Construct: expressed in transfected cells; host or cells: CHO
- Sequence (Q9Y5Y9 whole entry): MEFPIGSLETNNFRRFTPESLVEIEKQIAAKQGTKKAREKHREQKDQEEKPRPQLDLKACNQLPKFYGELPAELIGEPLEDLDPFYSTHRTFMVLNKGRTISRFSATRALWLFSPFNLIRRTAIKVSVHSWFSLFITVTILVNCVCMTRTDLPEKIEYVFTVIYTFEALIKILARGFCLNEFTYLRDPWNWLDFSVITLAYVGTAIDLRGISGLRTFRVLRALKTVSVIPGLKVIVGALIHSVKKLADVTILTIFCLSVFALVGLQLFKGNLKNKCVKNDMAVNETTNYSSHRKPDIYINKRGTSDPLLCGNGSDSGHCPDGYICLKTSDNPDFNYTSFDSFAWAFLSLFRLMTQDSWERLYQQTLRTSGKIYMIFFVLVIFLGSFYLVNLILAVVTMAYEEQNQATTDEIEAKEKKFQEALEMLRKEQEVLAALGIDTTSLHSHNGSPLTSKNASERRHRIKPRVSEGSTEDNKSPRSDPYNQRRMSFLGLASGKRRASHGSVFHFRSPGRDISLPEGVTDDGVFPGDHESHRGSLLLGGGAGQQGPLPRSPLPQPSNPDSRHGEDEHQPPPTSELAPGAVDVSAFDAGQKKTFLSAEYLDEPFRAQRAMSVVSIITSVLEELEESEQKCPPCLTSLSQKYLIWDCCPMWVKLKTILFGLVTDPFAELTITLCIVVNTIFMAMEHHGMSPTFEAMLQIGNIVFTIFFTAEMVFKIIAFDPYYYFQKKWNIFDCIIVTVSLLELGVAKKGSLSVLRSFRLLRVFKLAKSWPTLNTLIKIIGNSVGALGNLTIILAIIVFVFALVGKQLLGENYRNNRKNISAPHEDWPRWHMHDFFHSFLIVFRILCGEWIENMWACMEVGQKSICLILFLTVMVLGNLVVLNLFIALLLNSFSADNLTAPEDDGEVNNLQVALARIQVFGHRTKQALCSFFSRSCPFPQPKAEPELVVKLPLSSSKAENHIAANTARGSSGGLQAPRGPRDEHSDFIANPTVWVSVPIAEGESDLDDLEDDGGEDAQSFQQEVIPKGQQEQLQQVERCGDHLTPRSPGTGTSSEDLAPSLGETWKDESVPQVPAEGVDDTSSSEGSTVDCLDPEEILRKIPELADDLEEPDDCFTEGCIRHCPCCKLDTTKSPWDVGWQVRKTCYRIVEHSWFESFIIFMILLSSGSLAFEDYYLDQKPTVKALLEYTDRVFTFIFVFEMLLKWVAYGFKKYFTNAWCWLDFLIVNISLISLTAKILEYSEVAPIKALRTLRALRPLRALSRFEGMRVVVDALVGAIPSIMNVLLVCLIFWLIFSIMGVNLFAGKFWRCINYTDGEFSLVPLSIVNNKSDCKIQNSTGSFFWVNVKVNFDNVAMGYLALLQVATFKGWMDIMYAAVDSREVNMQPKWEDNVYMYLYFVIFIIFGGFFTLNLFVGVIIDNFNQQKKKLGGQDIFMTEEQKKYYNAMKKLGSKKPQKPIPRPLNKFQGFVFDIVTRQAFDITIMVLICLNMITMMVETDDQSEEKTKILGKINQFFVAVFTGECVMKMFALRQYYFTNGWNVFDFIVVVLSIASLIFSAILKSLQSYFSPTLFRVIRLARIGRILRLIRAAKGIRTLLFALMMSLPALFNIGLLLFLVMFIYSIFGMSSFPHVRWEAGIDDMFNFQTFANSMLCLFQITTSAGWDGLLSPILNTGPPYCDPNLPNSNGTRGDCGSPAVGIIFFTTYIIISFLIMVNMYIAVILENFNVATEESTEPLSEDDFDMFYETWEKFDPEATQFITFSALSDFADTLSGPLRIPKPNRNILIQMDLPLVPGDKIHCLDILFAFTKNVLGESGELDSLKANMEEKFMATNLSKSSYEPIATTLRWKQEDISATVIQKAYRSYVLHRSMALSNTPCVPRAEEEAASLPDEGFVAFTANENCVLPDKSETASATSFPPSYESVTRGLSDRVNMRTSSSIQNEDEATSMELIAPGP
- Sequence (Q9NY72 23-215 partner): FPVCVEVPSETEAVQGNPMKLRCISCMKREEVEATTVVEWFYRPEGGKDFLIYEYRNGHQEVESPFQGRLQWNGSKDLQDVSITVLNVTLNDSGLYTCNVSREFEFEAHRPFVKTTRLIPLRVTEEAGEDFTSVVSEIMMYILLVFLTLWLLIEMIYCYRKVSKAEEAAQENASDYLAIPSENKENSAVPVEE
- protocol_details: Compound Profiling Human NaV1.8/β3 Cell Line—SyncroPatch384PE Assay (automated patch clamp, stably transfected CHO cells)
- Format: cell-based
- measurement_context: P2 (IC50, inactivated state block), P2 measurement, inactivated state block; Nav1.8/b3 CHO cells, inactivation step −35 mV 10 sec; third set of compounds
The compounds listed here are annotated with their IC50.

Below, 3 compounds whose answers are already recorded.
>>> print(df.to_string())
                                   compound  result_value
0  COc1cc(C#N)ccc1Oc1ncc(C(F)(F)F)c(C)c1C(=O)Nc1cccc(S(N)(=O)=O)c1 [Example 28C]        < 5 nM
1  COc1cc(C#N)ccc1Oc1ncc(-c2ccc(C(F)F)cc2)c(C)c1C(=O)Nc1ccnc([S@@](C)(=N)=O)c1 [Example 16C]      > 200 nM
2  Cc1nc(F)ccc1Oc1cnc(C(F)(F)F)c(F)c1C(=O)Nc1cccc([S@](C)(=N)=O)c1 [Example 110C]    5 to 50 nM

Then this compound:
### Prompt Query: IC50; subject: Cc1nc(F)ccc1Oc1ncc(C(F)(F)F)c(C)c1C(=O)Nc1ccc(C(N)=O)cc1 [Example 118C]
### Response < 5 nM
